- Tested on: SF-539 CNS
- protocol_summary: NCI-60 one-dose screen, 48 h
- experimental_conditions: 10 µM unless noted
This is part of a sample that, as a whole, favours compounds with a hit. Of some 83,000 tested, about 20% had one in any assay. The source made the active and inactive calls. Rule for the calls: active = growth percent below 10; inactive = the rest.
Parameter call: string, one of Y for active, N for inactive

(Q) Test call for this compound, please: `O=C(CN1CCCCCC1)Nc1nc2ccc(NCc3ccc(Cl)cc3)cc2s1`
(A) N

(Q) # fetch the recorded call for `Cn1cc(-c2csc(-c3c[nH]c4ccc(F)cc34)n2)c2ccnc(Cl)c21` here
(A) N

(Q) Check the results log: what was the call for `C=C(C)[C@@H]1CCC[C@]2(C(=O)N3CCN(C)CC3)CC[C@]3(C)[C@@H](CC[C@@H]4[C@@]5(C)CC/C(=N\NC(=O)c6ccncc6)C(C)(C)[C@@H]5CC[C@]43C)[C@@H]12` ?
(A) N

(Q) Kindly provide the recorded test outcome for the following compound: `Cc1c2cccnc2c(C)c2c1c1cc(CO)ccc1n2C`
(A) N

(Q) Would you mind telling me which call this test gave N#CC1=C(N)Oc2ccc3ccccc3c2C1c1ccc([N+](=O)[O-])cc1 (stereo unspecified) ?
(A) N

(Q) Record request — test call for `Cc1ccc(NC(=O)Cn2c(Br)nc3c2c(=O)n(C)c(=O)n3C)cc1`
(A) Y

(Q) What did this assay record as the result for `Cc1ccc(/C=C(\C#N)n2nnc3cc(F)c(F)cc32)cc1` ?
(A) Y

(Q) GET /call?item= `C#COc1cccc(Nc2ncnc3cc(NC(=O)[C@@H](C)Cl)ccc23)c1` returns the recorded outcome of this test.
(A) Y

(Q) Recorded test call requested for `N#C/C(=C\c1ccc([N+](=O)[O-])cc1)n1nnc2cc(F)c(F)cc21`
(A) Y

(Q) Please let me know the test result on file for `Nc1[nH]c(=S)nc2oc(-c3ccccc3)c(-c3ccccc3)c12` .
(A) N

(Q) I would be grateful if you could indicate the recorded call for `CCOC(=O)c1cnc2c(N=Nc3ccc(OC)cc3)c(N)nn2c1N` .
(A) N

(Q) # outcome recorded in this test, key = `CCn1cc(CNc2ccc(C(=O)Nc3cc4cc(OC)c(OC)cc4c(C)n3)cc2)cn1`
(A) N

(Q) I'd appreciate the recorded outcome for `C=CN(C(=O)N1CCN(c2cc3c(cc2F)c(=O)c(C(=O)O)cn3C2CC2)CC1)c1nc(-c2ccc(OC)cc2)cs1` from this test.
(A) N

(Q) Could you kindly confirm the outcome this assay logged for `N#Cc1cncc(-c2ccc3ncnc(Nc4cccc(Cl)c4)c3c2)c1` ?
(A) N

(Q) Assay outcome for `O=C(Nc1cnc(Nc2ccc(N3CCOCC3)nc2)nc1Oc1ccc(C(F)(F)F)cc1)c1ccncc1` : what was it?
(A) Y

(Q) Tell me the assay call for `Cc1ccc(/C=C/C(=O)c2ccc(-n3cc(CN4CCN(c5cc6c(cc5F)c(=O)c(C(=O)O)cn6C5CC5)CC4)nn3)cc2)cc1` please.
(A) N

(Q) # fetch the recorded call for N#Cc1cccc(C2C3=C(COC3=O)N(CCO)c3cc4c(cc32)CCC4)c1 (stereo unspecified) here
(A) Y

(Q) Could you kindly confirm the outcome this assay logged for COc1ccc(C2CC(c3cc(OC)c(OC)c(OC)c3)=NO2)cc1OCCCCOc1cc2c(cc1OC)C(=O)N1CCC[C@H]1C=N2 (stereo partly specified) ?
(A) Y

(Q) # lookup: test call for `CC(C)(C)c1cc(Cl)c(O)c(CNCCO)c1`
(A) N

(Q) Tell me the recorded outcome of this test for `C#Cc1cccc(Nc2nc(C)nc3cc(NC(=O)CCl)ccc23)c1` .
(A) Y

(Q) Write down the call the test reported for this compound. Item: `C[C@]1(O)CC(=O)[C@]2(O)C3=C(C=C[C@]2(O)C1)C(=O)c1c(O)cccc1C3=O`
(A) N

(Q) Recorded test outcome, item `COc1ccc(Oc2nc(Nc3ccc(N4CCOCC4)cc3)ncc2NC(=O)Nc2cc(OC)cc(OC)c2)cc1`
(A) Y

(Q) Outcome? `CC1=C(C(=O)Nc2nc(-c3ccc(Cl)cc3)cs2)[C@H](c2ccc(O)cc2)NC(=O)N1`
(A) N

(Q) Check the results log: what was the call for `COC(=O)CCC/C=C\C[C@H]1C=CC(=O)/C1=C/C[C@@H](O)C/C=C\CC(F)(F)F` ?
(A) N

(Q) Dear colleague, could you share the recorded outcome for `CN1CCN(C(=S)SCCCCOc2cc(=O)oc3ccccc23)CC1` when you have a moment?
(A) N

(Q) Called result for `O=c1ccc(=O)n(-c2nc(-c3ccc([N+](=O)[O-])cc3)cs2)[nH]1`
(A) N

(Q) Check the results log: what was the call for `CCN1CCN(CC(=O)Nc2ccc(-c3cn4c(n3)sc3cc(Oc5ccnc(C(=O)NC)c5)ccc34)cc2)CC1` ?
(A) N

(Q) Query: recorded result category for `CNC(=O)c1cc(Oc2cccc3nc(NC(=O)Nc4cc(C(F)(F)F)ccc4Cl)ccc23)ccn1` in this test
(A) N

(Q) Test call for this compound, please: N#Cc1c(-c2ccccc2)nc(SCC(O)CN2CCOCC2)nc1N1CCOCC1 (stereo unspecified)
(A) N

(Q) For `COC(=O)c1c2c(c(C)[n+]([O-])c1C)C(=O)C(NCc1ccc(OC)cc1)=CC2=O` , what call appears in the results of this test?
(A) N

(Q) // return assay outcome for `COc1cc(-c2nc3sccn3c2-c2ccnc(NCCNS(=O)(=O)c3ccc(Cl)cc3)n2)ccc1F`
(A) N

(Q) How was `COc1ccccc1N(C(C)=O)C1=C(Cl)C(=O)c2ccccc2C1=O` classified in this test?
(A) Y

(Q) Short answer needed: outcome of this test for `NC(=O)c1c(NC(=O)c2cccc(C(F)(F)F)c2)sc2c1CCC(=O)C2` ?
(A) Y

(Q) For this compound, state the assay outcome: `C=C(CNCCc1ccc(O)cc1)[C@@H]1CC[C@]2(CO)CC[C@]3(C)[C@H](CC[C@@H]4[C@@]5(C)CCC(=O)C(C)(C)[C@@H]5CC[C@]43C)[C@@H]12`
(A) N

(Q) Look up the recorded call for `NS(=O)(=O)c1ccc(-c2cc(-c3nnc(SCC(=O)Nc4ccc(C(=O)/C=C/c5ccc(Cl)cc5)cc4)n3-c3ccccc3)c3ccccc3n2)cc1` in this test.
(A) N

(Q) For `O=C(Nc1ccccc1N1CCCC1=O)c1oc2ccc(F)cc2c1-c1cnn(-c2ccccc2)c1` , what call appears in the results of this test?
(A) N

====

Can you tell me growth for the items I'm about to list?
- Test system: TK-10 renal
- protocol_summary: NCI-60 one-dose screen, 48 h (100 = growth as untreated, 0 = no growth, -100 = all killed)
- experimental_conditions: 10 µM unless noted
This is part of a sample that, as a whole, favours compounds with a hit. Of some 83,000 tested, about 20% had one in any assay.
Your answer should be a plain number; it is taken to be in %.

(Q) // lookup growth for C=C(CNCCO)[C@@H]1CC[C@]2(CO)CC[C@]3(C)[C@H](CC[C@@H]4[C@@]5(C)CCC(N)C(C)(C)[C@@H]5CC[C@]43C)[C@@H]12 (stereo not given in full)
(A) 68.9

(Q) Which value of growth has been reported for `Cc1ccc(C(=O)c2ccc(CC(=O)N=Nc3c(O)[nH]c4ccc(Br)cc34)n2C)cc1` in the records?
(A) 131

(Q) Look at this compound and give its reported growth. `CN1CCN(C(=S)SCCCCOc2cc(=O)oc3ccccc23)CC1`
(A) 93.3

(Q) Consider the compound `O=C(O)/C=C/C(=O)Nc1cccc(Cn2nnc3cc(Cl)c(Cl)cc32)c1` and give its measured growth.
(A) 124

(Q) Any idea what its growth is? The compound is N#Cc1c(-c2ccccc2)nc(SCC(O)CN2CCOCC2)nc1N1CCOCC1 (stereo not given)
(A) 40.8

====

- Test system: NCI-H226 lung
- protocol_summary: NCI-60 one-dose screen, 48 h
- experimental_conditions: 10 µM unless noted
Compounds without any hit were thinned out: in the full panel of roughly 83,000, 20% have a hit. Activity calls are given as the source filed them. The calls were made as follows: active = growth percent below 10; inactive = the rest.
# output must be one of active, inactive

(Q) How did this test come out for `COc1cccc(Nc2ncnc3cc(NC(=O)CCl)ccc23)c1` ?
(A) active

(Q) For `CCOC(=O)c1ccccc1-c1c2ccc(=[N+](C)C)cc-2oc2cc(N(C)C)ccc12` , which call appears in the assay record?
(A) inactive

(Q) Query: recorded result category for CCN1C(=O)N(CC)C2C1N=C(SCc1ccc(Cl)cc1)N2/N=C/C=C/c1ccccc1OC (configuration not stated) in this test
(A) inactive

(Q) Which outcome was assigned to `O=C(N/N=C\c1ccccc1S(=O)(=O)O)N/N=C/c1ccccc1S(=O)(=O)O` in this test?
(A) inactive

(Q) Fill in: this test's call for `CC/C=C\C[C@H](O)C/C=C1/C(=O)C=C[C@@H]1C/C=C\CCCC(=O)O` is ___
(A) inactive

(Q) Test call, this compound: `N#Cc1cncc(-c2ccc3ncnc(Nc4cccc(Cl)c4)c3c2)c1`
(A) inactive

(Q) Tell me the recorded outcome of this test for `CC1(C)C(N)=Nc2cc(OCCCN3Cc4ccccc4C3)c(OCC3CC3)cc21` .
(A) inactive

(Q) Dear colleague, could you share the recorded outcome for `O=C1Nc2ccccc2C1(c1c[nH]c2ccccc12)c1c[nH]c2ccccc12` when you have a moment?
(A) active

(Q) Hello, I am checking results. What call was entered for `CCOC(=O)C1=C(C)C(Cl)=N/C1=C\c1[nH]c(Cl)c(C)c1C(=O)OCC` ?
(A) inactive

(Q) Per the records of this test, what outcome belongs to `c1ccc2c(c1)CCCc1nnc3nc4ccccc4n3c1-2` ?
(A) inactive

(Q) Please indicate how the test categorized `C=C(C)[C@@H]1CCC[C@]2(C(=O)O)CC[C@]3(C)[C@@H](CC[C@@H]4[C@@]5(C)C/C(=C/c6ccncc6)C(=O)C(C)(C)[C@@H]5CC[C@]43C)[C@@H]12` .
(A) inactive

(Q) Recorded test outcome, item `CN1CCN(Cc2ccc(NC(=O)c3cncc(C#Cc4cnc5ccc(Cl)nn45)c3)cc2C(F)(F)F)CC1`
(A) active

(Q) # lookup: test call for `O=C(N=Nc1c(O)[nH]c2ccccc12)Nc1ccc(F)cc1`
(A) inactive

(Q) Please let me know the test result on file for `Nc1[nH]n2cc(-c3ccc(F)cc3)nc2c1N=Nc1ccc(S(N)(=O)=O)cc1` .
(A) inactive

(Q) Hi team, can someone confirm the assay call for Cc1nc2c(c(=O)[nH]1)C(c1ccccc1)c1ccc3ccccc3c1O2 (configuration not stated) ?
(A) inactive

(Q) What is the recorded call for this compound in the test? CC1=CC(c2ccco2)=C2C(N)=NNC2N1 (configuration not stated)
(A) inactive

(Q) Which outcome was entered for the compound `O=C1c2ccccc2C(=O)C1c1ccc(Br)cc1` in this test?
(A) inactive

(Q) Recorded call for CC(=O)ON1CCCC(P(=O)(OCCSC(=O)C(C)(C)C)OCCSC(=O)C(C)(C)C)C1=O (configuration not stated) ?
(A) inactive

(Q) Please share the test call associated with NC1(CO)COC(c2ccccc2)OC1 (configuration not stated) .
(A) inactive

(Q) What did this assay record as the result for `C#CC#CC#CC#CC#CC#CC#CC#CC[C@@H]1OC[C@@H](COC(=O)O[C@@H](C(=O)O[C@H]2C[C@@]3(O)[C@@H](OC(=O)c4ccccc4)[C@@H]4[C@]5(OC(C)=O)CO[C@@H]5C[C@H](O)[C@@]4(C)C(=O)[C@H](OC(C)=O)C(=C2C)C3(C)C)[C@@H](NC(=O)c2ccccc2)c2ccccc2)O1` ?
(A) inactive

(Q) Which result was noted for this compound in the test: `COc1ccc(Cn2cc(C(=O)N=Nc3c(O)[nH]c4c(C)cccc34)nn2)cc1`
(A) inactive

(Q) Tell me the recorded outcome of this test for `O=C(CCSc1nnc2n(Cc3ccccc3)c(=O)c3c4c(sc3n12)CCCC4)N1CCN(c2ccccc2)CC1` .
(A) inactive

(Q) Just curious, what result did `C#CCn1cnc2cnc(Nc3cccc(NC(=O)C=C)c3)nc21` get here?
(A) inactive

(Q) Field: outcome | Entry: `N#Cc1c(Nc2ccc(N3CCOCC3)cc2)nc(SCC(=O)c2ccc(Br)cc2)nc1-c1ccccc1`
(A) inactive

(Q) How did this test come out for `COc1ccc2c(c1)c(-c1nc(-c3c[nH]c4ncccc34)cs1)cn2CCCN1CCOCC1` ?
(A) inactive

(Q) Any idea what this test logged for `CN(CCC(=O)c1ccccc1)CCC(=O)c1ccccc1` ?
(A) inactive

(Q) What was the test verdict on `C[C@]1(O)CC(=O)[C@]2(O)C3=C(C=C[C@]2(O)C1)C(=O)c1c(O)cccc1C3=O` ?
(A) inactive

(Q) Per the records of this test, what outcome belongs to CCCn1cnc2c(c1=N)C(c1ccc(F)cc1)c1sc3c(F)cccc3c1O2 (configuration not stated) ?
(A) inactive

(Q) Identify the outcome logged in this assay for the compound shown: `O=C(CC(=O)Nc1cccc(C(=O)O)c1)Nc1cccc(C(=O)O)c1`
(A) inactive

(Q) Tell me the assay call for `Cc1cc(Nc2ccc(C(=O)N3CCCC3)cc2)nc(NCCCNc2ccnc3cc(Cl)ccc23)n1` please.
(A) inactive

(Q) Recorded test call requested for N#Cc1cccc(C2C3=C(COC3=O)N(CCO)c3cc4c(cc32)CCC4)c1 (configuration not stated)
(A) inactive

(Q) Answer briefly: the call reported for `CC1=C2[C@@H](CC1)[C@]1(C)O[C@@](C3CCCCC3)(C[C@H]1OC(=O)CO)[C@H]2OC(=O)/C=C/c1ccccc1` in this assay.
(A) inactive

(Q) # lookup: test call for `O=C(/C=C/c1ccc(Cl)cc1)c1cccc(OCCCOc2cccc(C(=O)/C=C/c3ccc(Cl)cc3)c2)c1`
(A) inactive

(Q) # outcome recorded in this test, key = `CC1(C)N=C(N)N=C(N)N1c1ccc(CCCCc2ccccc2)c(Cl)c1`
(A) inactive

(Q) Just curious, what result did `CCN(CC)CCN1C(=O)c2cccc3c(/C=C/CN4C(=O)c5cccc6cccc(c56)C4=O)ccc(c23)C1=O` get here?
(A) inactive

(Q) // return assay outcome for `COc1ccc(Cn2cc3c(c2-c2ccccc2)CCc2cnoc2-3)cc1`
(A) inactive

(Q) Assay result, entry `CNC(=O)c1cc(Oc2cccc3nc(NC(=O)Nc4cc(C(F)(F)F)ccc4Cl)ccc23)ccn1` — outcome?
(A) inactive
